Assay: CCTE_Harrill_HTTr_CellCount_MCF7: CCTE's Cell Proliferation Assessment for the High-Throughput Transcriptomics (HTTr) Platform, Harrill Lab (AID 2284012);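 further: cells exposed to compound for six hours; intended direction is loss of nuclei count meaning fewer cells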
From the text: This is a cell-based assay that evaluates cell viability and cell growth using high content imaging to count the number of Hoechst-labeled nuclei that are present in an assay well in 384-well format.This is a cell-based assay that evaluates cell viability and cell growth in MCF-7 cells. This was part of a full screening experiment. […]
Results filed as inconclusive are left out. The source made the active and inactive calls. How the source made its calls: active means hit-call score of the fitted dose curve at least 0.9, where 1 is the maximum; inconclusive means response in the unintended direction; inactive means score below 0.9.
Labels: active, inactive

N#CCCO
inactive
C=C(C)C(=O)[O][Sn]([CH2]CCC)([CH2]CCC)[CH2]CCC
active
Nc1ccc(-c2ccc(N)c(Cl)c2)cc1Cl
inactive
